# assaySummary: Radical-trapping antioxidant (RTA) activity assay in DOPC liposomes
# testSettings: 50 μM compound, 2 mol% in DOPC liposomes, BODIPY 581/591 C11 quenching; liposome-only control = 1
Radical Trapping Assay AUC (Rel. Control): recorded values
Write the number on its own, no unit after it.

Here's what some known entries look like.
molecule	reported
Cc1c(C)c2c(c(C)c1O)CCC(C)(CCCC(C)CCCC(C)CCCC(C)C)C2 (stereo not shown) [αTCC]	4.706
CC1=C(C)C(=O)C(CC[C@](C)(O)CCC[C@H](C)CCC[C@H](C)CCCC(C)C)=C(C)C1=O [αTQ, α-tocopherol quinone]	1.217
Cc1c(C)c(O)c(CC[C@](C)(O)CCC[C@H](C)CCC[C@H](C)CCCC(C)C)c(C)c1O [αTHQ, α-tocopherol hydroquinone]	1.855

# context switch: different molecule, same Radical Trapping Assay AUC (Rel. Control)
# input Returns the measured Radical Trapping Assay AUC (Rel. Control) for the input molecule. Input: Cc1c(C)c2c(c(C)c1O)CC[C@@](C)(CCC[C@H](C)CCC[C@H](C)CCCC(C)C)O2 [αT, α-tocopherol, reference compound]
# output 5.123

These data points were gathered from paper PMC6093661.
